These measurements were taken from patent US20260028391A1.

- System Under Test: T1, RSV F B N208D (RSV B)
- T1 construct: whole, on cells
- Test Details: FACS, % binding to RSV F B variants
Reported values of % binding for individual entries
Provide the reading as a plain figure in %.

MPK65-v2-v1.2 (antibody, V domains shown) VH: QVPLVQSGAEVKKPGESLKISCKGSGYSFINYWIGWVRQMPGKGLEWMGVIYPFDSDTKYSPSFQGHVTISADKSSNTAYVQWSSLKASDTAMYYCARFTFGIAVVTDDVSGEGQAFEIWGQGTMVTVSS VL: QIVMMQSPATLSVSPGERATLSCRASQSVAGNLAWYQQRPGQAPRLLIYGASTRATGVPARFSGSGSETEFTLTISSLQSEDFAVYYCHQYSNLPQAFGQGTRLDIK	0.47

Input line: So what does the record say about % binding for MPK176-v1.3 (antibody, V domains shown) VH: QVQLVQSGAEVKKPGASVRVSCKASGYTLTAYGISWVRQAPGQGLEWMGWISPKHGNTHYAQRFQGRVTMTTDTSTSTAYMELRSLRPDDTAVYFCAREGVDIMAVPWYFDYWGQGTLVAVSS VL: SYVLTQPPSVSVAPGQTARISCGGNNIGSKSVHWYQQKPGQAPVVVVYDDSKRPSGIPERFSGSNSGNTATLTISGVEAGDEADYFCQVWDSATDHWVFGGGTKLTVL ?
Output line: 53.6

Input line: Given MPK65-v2-v3.1 (antibody, V domains shown) VH: QVPLVQSGAEVKKPGESLKISCKGSGYSFISYWIGWVRQMPGKGLEWMGVIYPFDADTKYSPSFQGHVTISADKSSNTAYVQWSSLKASDTAMYYCARFTFGIAVVTDDVSGEGQAFEIWGQGTMVTVSS VL: EIVMMQSPATLSVSPGERATLSCRASQSVAGNLAWYQQRPGQAPRLLIYGASTRATGVPARFSGSGSETEFTLTISSLQSEDFAVYYCHQYSNWPQAFGQGTRLDIK , state its recorded % binding.
Output line: 0.14

Input line: Would you mind telling me what % binding value was observed for MPK190-v1.3-rIgG1m17,1-LS (antibody, V domains shown) VH: QVQLVESGGGLVKPGGSLTLSCAASGFSISGYGMNWVRQAPGRGLEWVASISASSTYIYYADSMKGRFTISRDNGKTSLYLQMKSLRAEDTAVYYCARAPIEPPYFDLWGRGTLVTVSS VL: QSVLTQPPSVSGAPGQRVTISCTGSSSNIGAGYDVHWYQHLPGKAPKVLIYGNTNRPSVVPDRFSGSNSGASASLAISGLQAEDEADYFCQSYDRRLSGPIFGGGTKLTVLG ?
Output line: 60.5
